Assay: anti-His antibody binders, primary screen, artefact control for SMM control protein annotation, biochemical, small-molecule microarray, 635 nm fluorescence (AID 1128);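 also: score merges feature fluorescence with signal-to-noise for each printed compound spot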
Settings: anti-His Alexa647 antibody binding, higher = more signal
Readout name: composite z-score

{"Compound": "CC(C)(C)OC(=O)CC[C@@]1(C(N)=O)N=C(c2ccc(OCCCO)cc2)O[C@@H]1c1ccccc1", "Readout name": "composite z-score", "Meas value": 1.27}
{"Compound": "COC(=O)[C@@]1(Cc2ccccc2)[C@H]2c3cc(C(=O)N4CCCC4)n(Cc4nc5ccccc5[nH]4)c3C[C@H]2CN1C(=O)c1ccccc1", "Readout name": "composite z-score", "Meas value": 2.51}
{"Compound": "COc1ccc(C(O)C2C=CC3C(=O)NC(=O)C3N2Nc2ccccn2)c2ccccc12 (centres undefined)", "Readout name": "composite z-score", "Meas value": 0.516}
{"Compound": "C=CCC(OC(C)=O)[C@@H]1[C@@H](N(Cc2cccc3ccccc23)C(=O)c2ccc(-c3ccccc3)cc2)c2cc(OCCCO)ccc2N1C(=O)Cc1ccc(OC)cc1 (some centres undefined)", "Readout name": "composite z-score", "Meas value": 0.364}
{"Compound": "CN1C(=O)C2C=CC(C(O)C3CC=CCC3)N(NC(=O)OC(C)(C)C)C2C1=O (centres undefined)", "Readout name": "composite z-score", "Meas value": 0.561}
{"Compound": "CN(C)CCCNC(=O)[C@@]1(c2ccc([N+](=O)[O-])cc2)CC(=O)N(C2CCCCC2)[C@@H]1c1ccc(CO)cc1", "Readout name": "composite z-score", "Meas value": -0.0406}
{"Compound": "O=C1C2C=CC(C(O)c3ccc(F)cc3)N(Nc3ccccc3F)C2C(=O)N1c1ccccc1 (centres undefined)", "Readout name": "composite z-score", "Meas value": 1.55}
{"Compound": "CCCCc1cn(C[C@H](Cc2ccccc2)NC(=O)N[C@H](CO)CCc2oc(C(C)=O)c(C(=O)OC)c2C(=O)OC)nn1", "Readout name": "composite z-score", "Meas value": 0.97}
{"Compound": "COc1ccc([Si](C)(C)[C@H]2[C@H](CC(=O)N3CCC[C@H]3CO)O[C@@]3(C(=O)N(Cc4cccc(N5C(=O)c6cccc7cccc5c67)c4)c4ccccc43)[C@@H]2C)cc1", "Readout name": "composite z-score", "Meas value": 0.874}
{"Compound": "COC(=O)[C@@]1(Cc2ccc(OC)cc2)[C@H]2c3cc(C(=O)N4CCCC4)n(Cc4ccccc4)c3C[C@H]2CN1C(=O)c1ccccc1", "Readout name": "composite z-score", "Meas value": 3}
{"Compound": "COc1ccc(CCN2C(=O)[C@@]3(Cc4ccccc42)c2ccccc2C(=O)N(Cc2ccccc2C(F)(F)F)[C@H]3c2ccc(CO)cc2)cc1", "Readout name": "composite z-score", "Meas value": 0.752}
{"Compound": "COC(=O)[C@@]1(Cc2ccc(F)cc2)[C@H]2c3cc(C(=O)N(C)C)n(Cc4ccc(S(C)(=O)=O)cc4)c3C[C@H]2CN1C(=O)c1ccccc1", "Readout name": "composite z-score", "Meas value": 0.904}
{"Compound": "COCCOC(=O)N1C(=O)[C@@]2(c3cc(C#Cc4ccc(OC)cc4)ccc31)[C@H](C(N)=O)[C@H]1C(=O)O[C@H](c3ccccc3)[C@H](c3ccccc3)N1[C@@H]2c1ccccc1OCCO", "Readout name": "composite z-score", "Meas value": 2.24}
{"Compound": "COC(=O)[C@@]1(Cc2ccc(F)cc2)[C@H]2c3cc(C(=O)N(C)C)n(Cc4nc5ccccc5[nH]4)c3C[C@H]2CN1C(=O)c1ccccc1", "Readout name": "composite z-score", "Meas value": 1.11}

###

Target: E3 ubiquitin-protein ligase XIAP (Homo sapiens) (UniProt P98170)
Sequence (P98170 whole entry, looked up): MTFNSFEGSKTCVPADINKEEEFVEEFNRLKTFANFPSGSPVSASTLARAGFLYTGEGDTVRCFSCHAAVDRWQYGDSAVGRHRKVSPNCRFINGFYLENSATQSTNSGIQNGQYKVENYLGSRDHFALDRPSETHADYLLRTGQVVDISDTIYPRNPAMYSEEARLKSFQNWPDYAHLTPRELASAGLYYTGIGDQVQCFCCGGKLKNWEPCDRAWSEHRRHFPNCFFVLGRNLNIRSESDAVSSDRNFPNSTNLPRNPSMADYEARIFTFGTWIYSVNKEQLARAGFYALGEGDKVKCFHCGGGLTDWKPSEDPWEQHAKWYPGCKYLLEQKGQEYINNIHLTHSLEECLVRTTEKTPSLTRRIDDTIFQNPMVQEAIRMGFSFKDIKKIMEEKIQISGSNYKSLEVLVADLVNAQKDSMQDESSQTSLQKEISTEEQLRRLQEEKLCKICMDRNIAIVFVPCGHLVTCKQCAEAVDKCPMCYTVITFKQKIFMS
Assay: XIAP binders, primary screen, biophysical, small-molecule microarray, fluorescence 635 nm (AID 1181);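 also: score merges 667 nm emission and signal to noise over triplicate slides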
Conditions: small-molecule microarray binding, higher = more signal

{"Query smiles": "C=CCOC(=O)[C@H]1[C@@H]2C(=O)O[C@@H](c3ccccc3)[C@@H](c3ccccc3)N2[C@@H](c2ccc(OCCOC(=O)[C@H]3C[C@H]4C(=O)N5CCC[C@H]5C(=O)N4[C@H]3c3ccc(O)cc3)cc2)[C@]12C(=O)Nc1ccc(I)cc12", "composite z-score": 2.8}
{"Query smiles": "CCCC=C(CCC)[C@@H](NS(=O)(=O)c1cccs1)c1ccc(C(=O)OC)cc1", "composite z-score": 0.0248}
{"Query smiles": "C=C[C@H](COC(C)=O)N(C(=O)OC(C)(C)C)S(=O)(=O)c1ccc(Br)cc1", "composite z-score": 0.137}

###

Assay: binders of probe aFGF2 on microarray, primary screen, stem cell growth factor project, biochemical, small-molecule microarray, fluorescence 635/667 (AID 1067);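 also: measures binding of biotinylated aFGF2 protein to printed compounds on slides; z-score merges feature fluorescence and signal-to-noise across triplicate slides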
Details: higher = more signal

{"Compound": "CC(C)(C)OC(=O)CC[C@]1(C(=O)O)N=C(c2ccc(OCCCO)cc2)O[C@H]1c1ccccc1N=[N+]=[N-]", "composite z-score": 0.441}
{"Compound": "COc1ccc(C#Cc2ccc3c(c2)[C@]2(C(=O)N3)[C@H](c3ccccc3OCCO)N3[C@H](c4ccccc4)[C@H](c4ccccc4)OC(=O)[C@H]3[C@@H]2C(=O)O)cc1", "composite z-score": 0.0406}
{"Compound": "COc1ccc([Si](C)(C)[C@H]2[C@H](CCO)O[C@@]3(C(=O)N(Cc4ccc(N5C(=O)COc6ccccc65)cc4)c4ccccc43)[C@@H]2C)cc1", "composite z-score": -0.14}
{"Compound": "CC(C)C(=C=CC[C@@H](O)c1ccccc1OCCO)CCO", "composite z-score": -0.115}
{"Compound": "C=CCOC(=O)[C@H]1[C@@H]2C(=O)O[C@@H](c3ccccc3)[C@@H](c3ccccc3)N2[C@@H](c2ccc(OCCOC(=O)[C@H]3C[C@H]4C(=O)N5CCC[C@H]5C(=O)N4[C@H]3c3ccc(O)cc3)cc2)[C@]12C(=O)Nc1ccc(I)cc12", "composite z-score": 0.555}
{"Compound": "CCN(CC)c1ccc(N2CC=CC34O[C@@H]5/C=C\\CCCOC(=O)C5[C@H]3C(=O)N(CCO)[C@@H]4C2=O)cc1 (stereo partly specified)", "composite z-score": -0.0785}

###

Assay: small-molecule microarray binders of probe aEGFR, primary screen, biochemical, biotinylated probe, 635/667 nm fluorescence (AID 1097);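 also: probe is a biotinylated anti-EGFR antibody binding compounds printed on slides; score combines fluorescence near 667 nm and signal to noise of each spot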
Details: higher = more signal
The following compounds are shown together with reported composite z-score values.

{"Compound": "O=C1C2C=CC(C(O)c3c(F)cccc3Cl)N(Nc3ccccc3)C2C(=O)N1c1ccccc1 (configuration not stated)", "composite z-score": -0.0251}
{"Compound": "[N-]=[N+]=NCc1ccccc1C[C@]1(C(=O)O)N=C(c2ccc(OCCCO)cc2)O[C@H]1c1ccccc1N=[N+]=[N-]", "composite z-score": 0.012}
{"Compound": "COCCOC(=O)N1C(=O)[C@@]2(c3cc(C#CC4=CCCCC4)ccc31)[C@H](C(=O)N1CCc3cc(OC)c(OC)cc3C1)[C@H]1C(=O)O[C@H](c3ccccc3)[C@H](c3ccccc3)N1[C@@H]2c1ccc(OCCO)cc1", "composite z-score": -0.0357}
{"Compound": "C=CCNC(=O)[C@@H]1[C@H]2C(=O)O[C@H](c3ccccc3)[C@H](c3ccccc3)N2[C@H](c2ccccc2OCCO)[C@@]12C(=O)N(C(=O)OCCOC)c1ccc(C#CCNC(N)=O)cc12", "composite z-score": 0.0149}
{"Compound": "CC(=O)N1Cc2ccccc2C[C@@]2(COC(c3ccc(OCCCO)cc3)=N2)C1=O", "composite z-score": 0.119}
{"Compound": "CN1C(=O)C2C=CC(C(O)c3ccccc3)N(Nc3ccccc3)C2C1=O (configuration not stated)", "composite z-score": -0.0828}
{"Compound": "COc1ccc(COC2OC[C@]3(C)[C@H]4C5=C(CN3C(=O)OC(C)(C)C)[C@H](C)C(CO)C(CO)C5CC[C@@H]24)cc1 (some centres not stated)", "composite z-score": 0.0699}

###

Item-by-item account of composite z-score
Assay: small-molecule binders of probe aInhba, primary screen, biochemical, small-molecule microarray, 635/667 nm fluorescence (AID 1148);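 also: score merges 667nm spot fluorescence with signal-to-noise for antibody binding to printed compounds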
Details: higher = more signal
Readout name: composite z-score

{"Molecule": "COc1ccc(COC2OC[C@]3(C)[C@H]4C5=C(CN3C(=O)OC(C)(C)C)[C@H](C)C(CO)C(CO)C5CC[C@@H]24)cc1 (some centres not stated)", "Meas value": 0.483}
{"Molecule": "CC1(C)[C@@H]2CC(C(O)C3C=CC4C(=O)N(c5ccccc5)C(=O)C4N3Nc3ccccc3)=C[C@H]1C2 (some centres not stated)", "Meas value": 0.571}
{"Molecule": "COC(=O)[C@@]1(Cc2ccc(OC)cc2)[C@H]2c3cc(C(=O)N(C)C)n(CCN4CNCC4=O)c3C[C@H]2CN1C(=O)c1ccccc1", "Meas value": -0.0736}
{"Molecule": "C=C(C)C1C(=C)CN([C@H](CO)c2ccccc2)C1=O (some centres not stated)", "Meas value": -0.103}
{"Molecule": "CN1C(=O)C2C=CC(C(O)c3cc(C(F)(F)F)cc(C(F)(F)F)c3)N(N3CCCCC3)C2C1=O (configuration not stated)", "Meas value": 0.0047}
{"Molecule": "COCCOC(=O)N1C(=O)[C@@]2(c3cc(C#CCCO)ccc31)[C@H](C(=O)N1CCN(c3ncccn3)CC1)[C@H]1C(=O)O[C@H](c3ccccc3)[C@H](c3ccccc3)N1[C@@H]2c1ccccc1OCCO", "Meas value": -0.0983}
{"Molecule": "OC([C@@H]1CC(c2ccccc2)=NO1)[C@H]1CC(c2ccccc2)=NO1 (some centres not stated)", "Meas value": 0.027}
